Target: T1, human IL-18BP (human, UniProt O95998 31-194)
T1 construct: UniProt printed as 095998; also called hIL-18BP
T1 sequence: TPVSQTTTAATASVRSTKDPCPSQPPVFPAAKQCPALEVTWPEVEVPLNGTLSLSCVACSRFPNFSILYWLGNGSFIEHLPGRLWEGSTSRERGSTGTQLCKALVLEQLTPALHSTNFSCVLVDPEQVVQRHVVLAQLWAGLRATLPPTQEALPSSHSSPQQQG
Test: BLI, apparent KD
What Kd was measured for each of the following?
Report as a plain number; the unit nM is understood.

Kd for SA301a HC-I51E (antibody, name in Kabat numbering, V domains shown, IgG1 kappa) VH: QVQLQESGPGLVKPSQTLSLTCTVSGYSITSDYNSHWIRQPPGKGLEWIGYEHYSGSTNYNPSLKSRVTISRDTSKNQFSLKLSSVTAADTAVYYCARNYGSIYVNYFDYWGQGTLVTVSS VL: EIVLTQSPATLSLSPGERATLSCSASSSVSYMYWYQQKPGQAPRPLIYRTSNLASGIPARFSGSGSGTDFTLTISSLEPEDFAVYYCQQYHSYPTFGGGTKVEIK is 1.53

Kd for SA301a HC-Y53Q (antibody, name in Kabat numbering, V domains shown, IgG1 kappa) VH: QVQLQESGPGLVKPSQTLSLTCTVSGYSITSDYNSHWIRQPPGKGLEWIGYIHQSGSTNYNPSLKSRVTISRDTSKNQFSLKLSSVTAADTAVYYCARNYGSIYVNYFDYWGQGTLVTVSS VL: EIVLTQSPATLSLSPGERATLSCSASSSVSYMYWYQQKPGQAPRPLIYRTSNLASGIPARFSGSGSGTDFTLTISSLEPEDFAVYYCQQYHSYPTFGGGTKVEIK is 1.81

Kd for SA301a HC-I51M (antibody, name in Kabat numbering, V domains shown, IgG1 kappa) VH: QVQLQESGPGLVKPSQTLSLTCTVSGYSITSDYNSHWIRQPPGKGLEWIGYMHYSGSTNYNPSLKSRVTISRDTSKNQFSLKLSSVTAADTAVYYCARNYGSIYVNYFDYWGQGTLVTVSS VL: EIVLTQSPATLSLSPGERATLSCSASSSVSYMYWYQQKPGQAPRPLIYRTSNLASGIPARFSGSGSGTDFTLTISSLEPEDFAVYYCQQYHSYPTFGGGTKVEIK is 0.56

All figures here come from patent US20250368745A1.
